assay: qHTS assay to identify small molecule agonists of the farnesoid-X-receptor (FXR) signaling pathway - cell viability counter screen (AID 743218); settings: FXR-bla HEK293T viability, CellTiter-Glo luminescence, 16 h; series mostly up to 62.6 µM; further: nearly all actives have a fitted effect of over 45% in size
Records with an inconclusive call do not appear. Calls of active or inactive are those of the source. The call rests on the fitted dose curve; in most records, active means well fitted cell-killing curve with a large enough effect in the repeat runs; inconclusive means weak or mixed curves, or effect the other way; inactive means no such curve, though single readings can be large or run the other way.
Log the outcome using a class from active, inactive

CNCCCN1c2ccccc2CCc2ccccc21    active
Cc1cc(C(=O)O)ccc1[N+](=O)[O-]    inactive
O[C@@H](COc1cccc2ncccc12)CN1CCN(C2c3ccccc3[C@@H]3[C@H](c4ccccc42)C3(F)F)CC1 (some centres not stated)    active
O=[N+]([O-])c1ccc(NCCO)c(OCCO)c1    inactive

I'd appreciate the recorded outcome for CCOC(=O)c1cccnc1 from this test.
inactive

I'd appreciate the recorded outcome for CC(=O)NO from this test.
inactive

I'd appreciate the recorded outcome for CC(C)(C)OCC1CO1 (configuration not stated) from this test.
inactive
